EXPERIMENTAL_SYSTEM: T1, C1-Ten/Tensin2 SH2 domain, wild type (UniProt Q63HR2 1120-1253)
T1 sequence (looked up): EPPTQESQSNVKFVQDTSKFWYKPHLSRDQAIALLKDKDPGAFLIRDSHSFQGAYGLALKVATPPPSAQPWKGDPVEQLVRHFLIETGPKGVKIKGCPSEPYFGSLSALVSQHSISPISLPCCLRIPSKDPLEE
PROTOCOL_NOTES: fluorescence polarisation
Non-standard residues stand in square brackets, D forms with d. No end group written: not given here. fluorescein = fluorescein-6-aminohexanoyl label; pY = N[C@@H](Cc1ccc(OP(=O)(O)O)cc1)C(=O)O; Ahx = NCCCCCC(=O)O
METRIC: pKd
Please treat pKd as minus the base-10 logarithm of the molar concentration.

Query block: Consider the binder {fluorescein-Ahx}-NE[pY]DNV [F-Ahx-NEpYDNV, fluorescein-6-aminohexanoyl-labeled pY-containing peptide] and give its measured pKd.
Result block: 5.60
